Assay: Peptide solubility by HPLC
Assay type: physicochemical
Settings: reconstituted RG54 peptide; assayed using HPLC
No end group written: not given here.
PROPERTY_LABEL: solubility

SUBSTANCE: Ac-AEYHAKATEHLSTLSEKAKPALEDLRQGLLPVLESFKVSFLSALEEYTKKLNTQ [RG54]
RESULT: > 3000 µg/mL
